Test system: UO-31 renal
Test: NCI-60 one-dose screen, 48 h (100 = growth as untreated, 0 = no growth, -100 = all killed)
Details: 10 µM unless noted
About 83,000 compounds went through this panel and 20% of them were active in at least one assay; those are over-represented in the sample as a whole.
Rule: growth under 80% gives -1, otherwise 1.

compound	group-label
CC1=C2CC/C(C)=C/CC[C@]3(C)O[C@H]3CC/C(C)=C/[C@H]2OC1	1
COc1ccc(C2C3=C(COC3=O)N(CCO)c3cc4c(cc32)OCO4)cc1OC (stereo not drawn)	1
Nc1c(Cl)cc(/C=C2\C=Cc3ccccc32)cc1Cl	1
CNC(=O)c1cc(Oc2ccc3c(c2)sc2nc(-c4ccc(NC(=O)[C@@H](NC(=O)OC)C(C)C)cc4)cn23)ccn1	-1
COC1C(O)CC(OC2CC(OC3CC(O[C@@H]4C(=O)c5c(cc6cc(OC7CC(OC8CC(O)C(O)C(C)O8)C(O)C(C)O7)c(C)c(O)c6c5O)CC4[C@H](OC)[C@@H](O)C(C)=O)OC(C)C3O)OC(C)C2O)OC1C (stereo partly drawn)	-1
O=C(NCCCCCCNC(=O)OCc1ccc2c(Cl)cc(Cl)c(O)c2n1)OCc1ccc2c(Cl)cc(Cl)c(O)c2n1	-1
Fc1ccc(/C=C/[C@@H]2C[C@@H](F)CCO2)cc1	1

Next up:
Data request: hey, is growth for this one >= 80%? `C/C(Cc1ccc(Cl)cc1)=C(\c1ccc(OCCN2CCCCCC2)cc1)c1ccc(OC(=O)c2ccccc2)cc1`
Data returned: -1

Hello, the source for this data is PubChem BioAssay (NCI), in case you need it.
